- System: protein phosphatase
- Assay: Compound was evaluated for the Michaelis-Menten constant, Km in a generic protein phosphatase stopped assay system
- Type: ADME
Where a SMILES comes first, the peptide text is derived from it.
Metric: Km (mM)
Numbers only, in mM.

q: Indicate its recorded Km; the compound in question is CC(=O)N[C@@H](CCCN=C(N)N)C(=O)N[C@@H](CCCN=C(N)N)C(=O)N[C@@H](C)C(=O)N[C@H](C(=O)N[C@H](C(=O)N[C@@H](C)C(=O)O)C(C)C)[C@@H](C)OP(=O)(O)O (HELM PEPTIDE1{[ac].R.R.A.[C[C@@H](OP(=O)(O)O)[C@H](N[*:1])C(=O)[*:2]].V.A}$$$$V2.0)
a: 3.7

----------
- Assay: Compound was evaluated for the Ki value for peptide alcohol for competitive inhibition in the presence of Mn2+ ions at pH 7.5
- Type: ADME
Metric: Ki

q: Indicate its recorded Ki; the substance in question is "H-RRATVA-OH"
a: > 30 mM

meta.source: ChEMBL document CHEMBL1134186
